- Tested on: superoxide, formed in a xanthine-xanthine oxidase system
- EXPERIMENT_SUMMARY: Active oxygen eliminating activity of powdery carrot compositions with saccharides before and after storage, nitro blue tetrazolium (NBT) test (Experiment 3)
- Format: biochemical
- EXPERIMENTAL_CONTEXT: powdery carrot composition, saccharide added to disrupted carrots at 10% d.s.b.; before storage
Readings of Activity (unit/g) Before storage for the listed molecules
Give the value in unit/g but do not write unit/g after it.

Worked cases, answers included:
molecule="OC[C@@H](O)[C@@H](O)[C@H](O)[C@H](O)CO [Mannitol, mannitol]" unit_descriptor=unit/g observed_measurement=520
molecule="OC[C@H]1O[C@H](O[C@H]2O[C@H](CO)[C@@H](O)[C@H](O)[C@H]2O)[C@H](O)[C@@H](O)[C@@H]1O [Trehalose, trehalose]" unit_descriptor=unit/g observed_measurement=580
molecule="OCC1OC2OCC3O[C@H](O[C@H]4C(O)C(CO)OC(OCC5O[C@H](O[C@@H](C1O)C2O)C(O)C(O)[C@@H]5O)C4O)C(O)C(O)[C@@H]3O (stereo partly drawn) [Cyclotetrasaccharide]" unit_descriptor=unit/g observed_measurement=590
molecule="OC[C@H]1O[C@@](CO)(O[C@H]2O[C@H](CO)[C@@H](O)[C@H](O)[C@H]2O)[C@@H](O)[C@@H]1O [Sucrose, sucrose]" unit_descriptor=unit/g observed_measurement=660
molecule="OC[C@H]1O[C@H](O[C@H]2[C@H](O)[C@@H](O)C(O)O[C@@H]2CO)[C@H](O)[C@@H](O)[C@@H]1O (mixture of isomers) [Maltose, maltose]" unit_descriptor=unit/g observed_measurement=550

Alright, here's another molecule for you.
Request: Find Activity (unit/g) Before storage for OC[C@@H](O)[C@@H](O)[C@H](O)[C@@H](O)CO [Sorbitol, sorbitol] on superoxide, formed in a xanthine-xanthine oxidase system and write it down.
Result: 560

----------
- Tested on: superoxide, formed in a xanthine-xanthine oxidase system
- EXPERIMENT_SUMMARY: Active oxygen eliminating activity of powdery carrot compositions with saccharides before and after storage, nitro blue tetrazolium (NBT) test (Experiment 3)
- Assay type: biochemical
- EXPERIMENTAL_CONTEXT: powdery carrot composition, saccharide added at 10% d.s.b.; stored at 40° C. for seven days
Please respond with yes when measured Activity (unit/g) After storage is strictly beneath 200 unit/g, and with no in all other cases.

Study these solved cases before continuing.
molecule=OC[C@@H](O)[C@@H](O)[C@H](O)[C@H](O)CO target_or_system="superoxide, formed in a xanthine-xanthine oxidase system" cat=yes
molecule="OCC1OC2OCC3O[C@H](O[C@H]4C(O)C(CO)OC(OCC5O[C@H](O[C@@H](C1O)C2O)C(O)C(O)[C@@H]5O)C4O)C(O)C(O)[C@@H]3O (stereo partly drawn) [Cyclotetrasaccharide]" target_or_system="superoxide, formed in a xanthine-xanthine oxidase system" cat=no
molecule=OC[C@@H](O)[C@@H](O)[C@H](O)[C@@H](O)CO target_or_system="superoxide, formed in a xanthine-xanthine oxidase system" cat=yes
molecule="OC[C@H]1O[C@H](O[C@H]2[C@H](O)[C@@H](O)C(O)O[C@@H]2CO)[C@H](O)[C@@H](O)[C@@H]1O (mixture of isomers)" target_or_system="superoxide, formed in a xanthine-xanthine oxidase system" cat=yes

Request: Is the reported Activity (unit/g) After storage for OC[C@H]1O[C@H](O[C@H]2O[C@H](CO)[C@@H](O)[C@H](O)[C@H]2O)[C@H](O)[C@@H](O)[C@@H]1O strictly below 200 unit/g?
Result: no

Request: Is the reported Activity (unit/g) After storage for OC[C@H]1O[C@@](CO)(O[C@H]2O[C@H](CO)[C@@H](O)[C@H](O)[C@H]2O)[C@@H](O)[C@@H]1O strictly below 200 unit/g?
Result: yes

----------
Readings of Percentage of residual activity (%) for the listed compounds
- Test system: superoxide, formed in a xanthine-xanthine oxidase system
- EXPERIMENT_SUMMARY: Active oxygen eliminating activity of powdery carrot compositions with saccharides before and after storage, nitro blue tetrazolium (NBT) test (Experiment 3)
- Format: biochemical
- EXPERIMENTAL_CONTEXT: powdery carrot composition, saccharide added at 10% d.s.b.; stored at 40° C. for seven days
Give the value in % but do not write % after it.

Worked cases, answers included:
compound=OC[C@@H](O)[C@@H](O)[C@H](O)[C@H](O)CO target_or_system="superoxide, formed in a xanthine-xanthine oxidase system" unit_descriptor=% observed_measurement=11
compound=OC[C@H]1O[C@H](O[C@H]2O[C@H](CO)[C@@H](O)[C@H](O)[C@H]2O)[C@H](O)[C@@H](O)[C@@H]1O target_or_system="superoxide, formed in a xanthine-xanthine oxidase system" unit_descriptor=% observed_measurement=66
compound="OC[C@H]1O[C@H](O[C@H]2[C@H](O)[C@@H](O)C(O)O[C@@H]2CO)[C@H](O)[C@@H](O)[C@@H]1O (mixture of isomers)" target_or_system="superoxide, formed in a xanthine-xanthine oxidase system" unit_descriptor=% observed_measurement=33
compound=OC[C@@H](O)[C@@H](O)[C@H](O)[C@@H](O)CO target_or_system="superoxide, formed in a xanthine-xanthine oxidase system" unit_descriptor=% observed_measurement=5
compound=OC[C@H]1O[C@@](CO)(O[C@H]2O[C@H](CO)[C@@H](O)[C@H](O)[C@H]2O)[C@@H](O)[C@@H]1O target_or_system="superoxide, formed in a xanthine-xanthine oxidase system" unit_descriptor=% observed_measurement=27

Alright, here's another compound for you.
Request: Please list Percentage of residual activity (%) recorded for the compound OCC1OC2OCC3O[C@H](O[C@H]4C(O)C(CO)OC(OCC5O[C@H](O[C@@H](C1O)C2O)C(O)C(O)[C@@H]5O)C4O)C(O)C(O)[C@@H]3O (stereo partly drawn) [Cyclotetrasaccharide]
Result: 66

Attribution: patent US20070218189A1
